The reported numbers originate from ChEMBL document CHEMBL1921670.

# PROCEDURE DETAILS: Volume of distribution at steady state in rat at 1 mg/kg, iv or 2 mg/kg, po
# Format: ADME, organism-based
# CONDITION NOTES: in vivo, read-out: Vdss
READOUT LABEL: Vd (L/kg)

Completed entries (count: 2):
COc1cccc(CNC(=O)c2cn(CCN(C)C)c3cc(-c4cn[nH]c4)ccc23)c1 ... 3.2
COc1cccc(CNC(=O)c2cn(CCN3CCCC3)c3nc(-c4cn[nH]c4)ccc23)c1 ... 10

A: COc1cccc(CNC(=O)c2[nH]c3cc(-c4cn[nH]c4)ccc3c2CN2CCOCC2)c1
B: COc1cccc(CNC(=O)c2cc3ccc(-c4cn[nH]c4)nc3n2C)c1
C: COc1cccc(CN(C(=O)c2cc3ccc(-c4cn[nH]c4)nc3[nH]2)C2CC2)c1
[in] Sort the 3 compounds by Vd; largest first, smallest last. Answer format: the labels, in the requested order.
[out] A, C, B
